system: BNGR-A21 (BmCrzR); assay type: cell-based, Bombyx mori
PARAMETER MEASURED: inhibition of BmCrz-induced luciferase activity

> print(dat)
                                   compound              measurement
1  CC(=O)OCOC(=O)CN(CC(=O)OCOC(C)=O)c1ccccc1OCCOc1ccccc1N(CC(=O)OCOC(C)=O)CC(=O)OCOC(C)=O [BAPTA-AM]  significantly inhibited
2  COc1ccc2c(c1)c(C1=C(c3c[nH]c4ccccc34)C(=O)NC1=O)cn2CCCN(C)C [Go6983]  significantly inhibited
3  COc1ccc2c(c1)CC[C@@H]1[C@@H]2CC[C@]2(C)[C@@H](NCCCCCCN3C(=O)C=CC3=O)CC[C@@H]12 [U73122]  significantly inhibited
4  O=C(O)CN(CCOCCOCCN(CC(=O)O)CC(=O)O)CC(=O)O [EGTA]  significantly inhibited
